assay: solvent given as SMILES; conditions: in Cc1ccccc1
Below, each entry is listed alongside its reported emission maximum.
Field format: number, assumed nm, no unit text.

In the examples that follow, each entry is paired with its recorded emission maximum.
[
  {
    "Compound": "CCCCC(CC)CN1C(=O)C2=C(c3ccc(-c4ccc(C5=C6C(C)=CC(C)=[N+]6[B-](F)(F)n6c(C)cc(C)c65)cc4)s3)N(CC(CC)CCCC)C(=O)C2=C1c1ccc(-c2ccc(C3=C4C(C)=CC(C)=[N+]4[B-](F)(F)n4c(C)cc(C)c43)cc2)s1 (stereo not drawn)",
    "Result Number": 637
  },
  {
    "Compound": "COc1ccc(C(=O)/C=C/c2ccc(N(C)C)cc2)cc1OC",
    "Result Number": 468
  }
]

Moving on to the next compound.
Data request: // emission maximum lookup, key: COc1ccc(-c2nnc(-c3cc(-n4c5ccccc5c5ccccc54)c(-n4c5ccccc5c5ccccc54)cc3-c3nnc(-c4ccc(OC)cc4)o3)o2)cc1
Data returned: 459
